This listing pairs sequences with measured apparent KD of MS2 coat protein.
- Tested on: MS2 coat protein
- Experiment: apparent KD of MS2 coat protein; designed switch direction (-1 OFF switch, 1 ON switch): 1; higher = weaker reporter binding
- Condition Summary: input ligand: none
Write down the numeric answer in nM and omit the unit.

Solved entries:
Residue Codes	Target Of Assay	Readout Units	apparent KD of MS2 coat protein
UUAUACUCGAGAGGAUAUGCAGAGGAUCACCCUGCAGAAGGCUCGUUAGAGAGGAUAUGCAGAGGAUCACCCUGCAGAAGGCUC [pwkr ssNG DX.24] (Eterna round: R96, puzzle: Same State NG 1)	MS2 coat protein	nM	37.4
AAUUAAGAUCAAGGAUAUCACGUCGAUUAGACGUGAGAAGGUGAUCCAUACAUGAGGAUCACCCAUGUAUAACAUGAAUUAAUU [SSNG1/8-B2] (Eterna round: R96, puzzle: Same State NG 1)	MS2 coat protein	nM	1580

Q: Requested field: apparent KD of MS2 coat protein. Item: GGAGAACAUGAGGAUCACCCAUGUGGAUGGGCGCUAGGAUAUGCGAGAGGGUGAAGAGAAGCAGAAGGAGUGGAUA [JR_SS1_Sub036] (Eterna round: R96, puzzle: Same State 1)
Ans: 147

---

- Tested on: MS2 coat protein
- Experiment: apparent KD of MS2 coat protein, switch ON state; designed switch direction (-1 OFF switch, 1 ON switch): 1; higher = weaker reporter binding
- Condition Summary: FMN input: 0 or 200 uM; Eterna round: R93 (includes R88 designs)
This listing pairs sequences with measured apparent KD of MS2 coat protein.

Solved entries:
Residue Codes	apparent KD of MS2 coat protein
AUAAAACAUGAGGAUCACCCAUGUAGACACAUGGGAGGAUAUACUAGAUCGAAAGAUCUAGUAGAAGGCCUUUGUA [Mat - Same State 1 - JL mod - D93]	131 nM
AAUACACAUAGUCAGGAUAUCAAAAAUAAGACAUGAGGAUCACCCAUGUAAUAAGUAAAAGUAAAUGAGAAGGGACAGGGUGACC [JR_SS002_Sub403]	1560 nM

Q: Find the measured apparent KD of MS2 coat protein: item GAAAAACAUGAGGAUCACCCAUGUAGAAAUAUGGUAGGAUAUACAAAGACGAAAGUCAAAGUAGAAGGGCCAAAAG [Starry Same State 1.4 (mat747 round 1 mod)] , target or system MS2 coat protein.
Ans: 13 nM

---

- System: MS2 coat protein
- Experiment: apparent KD of MS2 coat protein; designed switch direction (-1 OFF switch, 1 ON switch): -1; higher = weaker reporter binding
- Condition Summary: input ligand: FMN 200 uM
This listing pairs sequences with measured apparent KD of MS2 coat protein.
Write down the numeric answer in nM and omit the unit.

Residue Codes	Observed Value
GUAUGUCUAGGAUAUAUAUUGGAAUGUCCGUGUCCUAGCCAACAUGAGGAUCACCCAUGUAGAAGGAGAUGUGU [Eternabot (L1) Solution 97] (Eterna round: R97, puzzle: Exclusion 2)	43.5
GCUGGUAUAGGAUAUACGUAAGACGUGGUCCACAGUUAAUUACAUGAGGAUCACCCAUGUAGAAGGAUGGAAGC [Eternabot (L2) Solution 95] (Eterna round: R97, puzzle: Exclusion 2)	298

Consider now this further sequence.
Q: Requested field: apparent KD of MS2 coat protein. Item: CGGAGUUAGGAGGAUAUGACGAACGCACGUCGUUCAGAAGGCCUAACAUGAGGAUCACCCAUGUGCUUAACACG [Eternabot (L2) Solution 59] (Eterna round: R97, puzzle: Exclusion 6)
Ans: 48.7

Reference source: the supplement of paper PMC9170038
